Literature compilation of pKi measurements on Vasopressin V1b receptor (Homo sapiens, UniProt P47901).
Sequence (P47901 whole entry): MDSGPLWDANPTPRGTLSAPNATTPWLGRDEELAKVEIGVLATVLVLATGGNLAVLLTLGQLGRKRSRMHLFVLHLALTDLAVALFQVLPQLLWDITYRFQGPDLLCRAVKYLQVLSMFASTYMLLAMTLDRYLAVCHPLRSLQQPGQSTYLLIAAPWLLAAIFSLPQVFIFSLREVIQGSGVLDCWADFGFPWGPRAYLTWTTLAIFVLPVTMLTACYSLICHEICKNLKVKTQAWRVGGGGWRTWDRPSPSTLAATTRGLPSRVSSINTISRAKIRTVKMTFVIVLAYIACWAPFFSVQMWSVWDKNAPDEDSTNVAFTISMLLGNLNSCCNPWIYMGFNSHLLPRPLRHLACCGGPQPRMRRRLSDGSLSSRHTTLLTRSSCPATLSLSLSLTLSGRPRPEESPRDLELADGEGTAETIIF
pKi: −log10 of the molar value.
Reported Endpoint: pKi

1) COc1ccc(S(=O)(=O)n2c(=O)n(C(C(=O)N3CCN(c4ccccc4)CC3)c3ccccc3)c3cc(Cl)ccc32)cc1 (stereo not drawn) :: 5.00 to 6.30
2) CCOc1ccccc1C1(N2CCN(c3ccncc3)CC2)C(=O)N(S(=O)(=O)c2ccc(C)cc2)c2ccc(C#N)cc21 (racemic) :: 6.30 to 7.30
3) COc1ccc(S(=O)(=O)N2C(=O)C(c3cc(CN4CCCC4)ccc3OC)(N3CCC[C@H]3c3ncco3)c3cc(Cl)c(Cl)cc32)cc1 (stereo partly drawn) :: 7.00 to 8.00
4) COc1ncccc1C1(N2CCN(c3ccncc3)CC2)C(=O)N(S(=O)(=O)c2cccc3cccnc23)c2ccc(C#N)cc21 (racemic) :: 7.30 to 8.00
5) COc1ccc(S(=O)(=O)N2C(=O)C(c3cc(CN4CCCC4)ccc3OC)(N3CCC[C@H]3c3ncco3)c3cc(C#N)ccc32)cc1 (stereo partly drawn) :: 7.00 to 8.00
6) COc1ccc(S(=O)(=O)N2C(=O)C(N[C@@H](C)c3ncco3)(c3cc(CNCCO)ccc3OC)c3cc(Cl)ccc32)cc1 (stereo partly drawn) :: > 8.00
7) CCOc1cc(F)ccc1C1(N2CCN(c3ccncc3)CC2)C(=O)N(S(=O)(=O)c2ccc(OC)cn2)c2ccc(C#N)cc21 (racemic) :: > 8.00
8) COc1ccc(S(=O)(=O)n2c(=O)n(C(C(=O)N3CCN(c4cccnc4)CC3)c3ccccc3)c3cc(Cl)ccc32)cc1 (stereo not drawn) :: 5.00 to 6.30
9) CCN1CCN([C@H]2CCN(C(=O)C(c3ccccc3)n3c(=O)n(S(=O)(=O)c4ccc(OC)cc4)c4ccc(Cl)cc43)C2)CC1 (stereo partly drawn) :: > 7.00
